Test system: MNoV^CW3
ASSAY INFO: CRISPR screen in BV2-Cas9 cells, sgRNA enrichment after MNoV^CW3 infection
Format: cell-based, murine norovirus
RUN PARAMETERS: MNoV^CW3, MOI 5, ten days post-infection
log2 fold enrichment after MNV infection relative to mock infected cells, CW3 MOI 5 overview
Could you write the number and then its unit?

Prompt: Give recorded log2 fold enrichment after MNV infection relative to mock infected cells, CW3 MOI 5 with MNoV^CW3 for the following substance: TAGAGCAGAGAACTGCCACA: sgRNA used in screen, matches CD300ld (listed as DNA, chemistry not given here)
Response: −6.7 log2 fold enrichment

* * *

Measured log2 fold enrichment after MNV infection relative to mock infected cells, CR6 MOI 0.05 of individual entries
Tested on: MNoV^CR6
ASSAY INFO: CRISPR screen in BV2-Cas9 cells, sgRNA enrichment after MNoV^CR6 infection
Format: cell-based, murine norovirus
RUN PARAMETERS: MNoV^CR6, MOI 0.05, ten days post-infection
Give the quantity in log2 fold enrichment, number only.

Some substances with known log2 fold enrichment after MNV infection relative to mock infected cells, CR6 MOI 0.05 results, for comparison:
SUBSTANCE	MEAS VALUE
GGATCCAGTCACAGGTCCAG: sgRNA used in screen, matches CD300lf, CD300lh (listed as DNA, chemistry not given here)	0.0
GTTACTGTGAACATTGGCCC: sgRNA used in screen, matches CD300lf (listed as DNA, chemistry not given here)	0.0
CTACGCAAATCAGGACCAGG: sgRNA used in screen, matches CD300lg (listed as DNA, chemistry not given here)	−6.4
GAGTGTGTCATGTCGATATG: sgRNA used in screen, matches CD300la (listed as DNA, chemistry not given here)	−6.2
GGTCGTCCCTGATGGACACA: sgRNA used in screen, matches CD300lh (listed as DNA, chemistry not given here)	12.0

Now for another entry.
Prompt: Can you look up the measured log2 fold enrichment after MNV infection relative to mock infected cells, CR6 MOI 0.05 of CTAGCTACTACTCTGATAAC: sgRNA used in screen, matches CD300lf (listed as DNA, chemistry not given here) for me?
Response: 0.0

* * *

substances and their reported log2 fold enrichment after MNV infection relative to mock infected cells, CW3 MOI 5
System: MNoV^CW3
ASSAY INFO: CRISPR screen in BV2-Cas9 cells, sgRNA enrichment after MNoV^CW3 infection
Assay type: cell-based, murine norovirus
RUN PARAMETERS: MNoV^CW3, MOI 5, ten days post-infection
Method: BV2 cells were transduced with pXPR_101 (Addgene plasmid 52962) and selected with blasticidin for eleven days. Cas9 activity was assessed by transducing parental BV2 or BV2-Cas9 cells with pXPR_011 (Addgene plasmid 59702), expresses eGFP and a sgRNA targeting eGFP at an MOI<1 [1]. Cells were transduced for 2 days and subsequently, selected for five days with puromycin and the frequency of eGFP expression was assessed by flow cytometry. […]
All answers are understood in log2 fold enrichment, so give the number only.

SUBSTANCE	MEAS VALUE
TCAGAGAAAGAAACGAAGAG: sgRNA used in screen, matches CD300lb (listed as DNA, chemistry not given here)	−5.5

Prompt: Report log2 fold enrichment after MNV infection relative to mock infected cells, CW3 MOI 5 for TACCACGCCACAGGACTCCA: sgRNA used in screen, matches CD300lg (listed as DNA, chemistry not given here) please.
Response: −6.2

Prompt: Quick one: CGTAGCCAGACACAGAGCCA: sgRNA used in screen, matches CD300le (listed as DNA, chemistry not given here)
Response: −5.5

Prompt: Cool, now GCCCTTGCTACTTACCTGGG: sgRNA used in screen, matches CD300ld (listed as DNA, chemistry not given here)
Response: −5.5

Prompt: Follow-up item: CTACGCAAATCAGGACCAGG: sgRNA used in screen, matches CD300lg (listed as DNA, chemistry not given here)
Response: −6.4

Prompt: And the next one, CCTGTGATCCAGAAGAGAAA: sgRNA used in screen, matches CD300lf (listed as DNA, chemistry not given here) ?
Response: 9.6

From: patent US20180252712A1
